Source listed as PubChem BioAssay (NCI).

Tested on: NCI/ADR-RES ovarian
Test: NCI tumour cell line growth inhibition, 48 h
Quick reference for TGI among some compounds
ASSAY_METRIC: TGI (µM)

compound="CC(=O)ON1CCCC(P(=O)(OCOC(=O)C(C)(C)C)OCOC(=O)C(C)(C)C)C1=O (stereo not given)" assay_metric=TGI bound_type== quantitative_readout=4.21
compound="COC(=O)/C=C(/C=C1/C(C#N)=C(N)N(c2ccc(Cl)cc2)C1(C)/C(=C\\C(=O)OC)C(=O)OC)C(=O)OC (stereo not given)" assay_metric=TGI bound_type== quantitative_readout=36.9
compound="CC(C)C(Br)CCC1=CCC(Br)(Br)C1 (stereo not given)" assay_metric=TGI bound_type== quantitative_readout=62.1
compound="COC1OC(C)C(NC(=O)OCC(Cl)(Cl)Cl)C2OC(C)(C)OC12 (stereo not given)" assay_metric=TGI bound_type=> quantitative_readout=100
compound=CC1(C)N=C(N)N=C(N)N1c1ccc(CCC(=O)Nc2ccc(S(=O)(=O)F)cc2)cc1 assay_metric=TGI bound_type=> quantitative_readout=100

###

Test system: SF-268 CNS
Assay: NCI tumour cell line growth inhibition, 48 h
ASSAY_METRIC: TGI

compound="COCC([C@@H](O)C(O)C(=O)NCC[C@@H](C)c1nc(/C=C/CC2OC3(C[C@H](O)C2C)OC(C(C[C@H](O)C(C)[C@H](O)C(C)/C=C(C)/C(C)=C/C=C/C(C)=C/C#N)OC)[C@@H](OP(=O)(O)O)C3(C)C)co1)N(C)C (some centres undefined)" assay_metric=TGI result="0.000344 µM"
compound=COc1cc(CNc2nc3cc(N)cc(N)c3nc2-c2ccccc2)cc(OC)c1 assay_metric=TGI result="> 100 µM"
compound=COCOc1ccc(C(=O)Oc2cccc3c2OC(C)(C)O3)c(OCOC)c1 assay_metric=TGI result="> 100 µM"
compound="C[C@]12Cc3cn[nH]c3C(=O)C1CC[C@@H]1C2CC[C@@]2(C)C1CC[C@@H]2O (some centres undefined)" assay_metric=TGI result="> 100 µM"
compound="COC(=O)c1ccccc1C1CN=NC12Cc1c(ccc(C)c1C)C2=O (centres undefined)" assay_metric=TGI result="> 100 µM"
compound=CN(C)c1nc(Oc2nc(N(C)C)nc(N(C)C)n2)nc(N(C)C)n1 assay_metric=TGI result="> 100 µM"
compound=COc1ccc2c(c1)c1c(n2CCN2CCCCC2)-c2cccc(OC)c2CC1 assay_metric=TGI result="48.8 µM"
compound=COc1ccc(OC)c(/C=C/c2nc(=S)n(-c3ccc(Cl)cc3)[nH]2)c1 assay_metric=TGI result="> 100 µM"
compound=Cc1ccc(S(=O)(=O)OCC/C(=C\[Si](C)(C)C)c2ccccc2)cc1 assay_metric=TGI result="> 100 µM"

###

System: COLO 205 colon
Experiment: NCI tumour cell line growth inhibition, 48 h
Listing of entries alongside the reported TGI.
ASSAY_METRIC: TGI

compound="COC(=O)C(Cc1cn(C(C)n2cc(CC(NC(C)=O)C(=O)OC)c3ccccc32)c2ccccc12)NC(C)=O (stereo unspecified)" result="> 100 µM"
compound=COc1ccc2c(c1)c1c(n2CCN2CCCCC2)-c2cccc(OC)c2CC1 result="39 µM"
compound="COC(=O)C1C(=O)O[C@@H](c2ccc3c(c2)OCO3)C1C(=O)OC (mixture of isomers)" result="> 100 µM"
compound=Cc1ccc2cccc(-c3cccc4ccccc34)c2n1 result="> 100 µM"
compound=CCCCI(O)OS(=O)(=O)c1ccc(C)cc1 result="> 100 µM"
compound=O=c1oc2ccccc2c(O)c1Cc1ccc(Cc2c(O)c3ccccc3oc2=O)cc1 result="> 100 µM"
compound=Clc1cccc(-c2sc(-c3cccs3)cc2Cc2cccs2)c1 result="> 10 µM"
compound=COc1cc2ccc3c4cc(OC)c(OC)cc4c[n+](C)c3c2cc1O result="> 100 µM"
compound=Cc1ccccc1-c1nc2c(N)nc(N)nc2nc1N result="> 100 µM"
compound=O=CC(I)=C(c1ccccc1)c1ccccc1 result="32.4 µM"
compound="CCN(CC)Cc1cc(Nc2nc(NC3CCC(N(C)C)CC3)c3ccccc3n2)ccc1OC (stereo unspecified)" result="2.87 µM"
compound=Cc1ccc(-c2cc(-c3ccco3)c(C#N)c(=S)[nH]2)cc1 result="> 100 µM"
compound=N#CNC(N)=NCc1ccccc1 result="> 100 µM"
compound=CCN(CC)CCCNc1ccc(C)c2sc3ccccc3c(=O)c12 result="0.384 µM"
compound=O=C1c2cccc(Oc3ccccc3)c2C(=O)c2cccc(Oc3ccccc3)c21 result="> 100 µM"
compound=Cn1c([N+](=O)[O-])cnc1C=C1C(=O)c2ccccc2C1=O result="15.9 µM"
compound=NS(=O)(=O)c1nnc(NC(=O)N(c2ccccc2)c2ccccc2)s1 result="> 100 µM"
compound=O=c1cc(O)cc2n1CCC2 result="> 100 µM"
compound="Nc1ncnc2c1N=C(c1ccc3c(c1)OCO3)CC(c1ccc(Cl)cc1)N2 (stereo unspecified)" result="> 100 µM"
compound=c1c[nH]c(-c2cccc3nsnc23)c1 result="> 100 µM"
compound=COc1cc(/C=C2\C[C@H]3[C@@H]4CCc5cc(OCCN6CCCC6)ccc5[C@H]4CC[C@]3(C)C2=O)cc(OC)c1OC result="2.81 µM"
